// % increase over control lookup, one value per entry
system: S. Hominis; assay: Growth of S. hominis in the presence of fatty acids (absorbance 620 nm growth curve); format: cell-based; settings: saturated fatty acids, concentration per example, at the end of 24 to 30 hours, control = 100.0
Your answer is read as %, so omit the unit and give the number.

Use the examples below as a reference point.
Challenge: What value of % increase over control has been recorded for this entry: CCCCCCCCCCCCCCCCCCCCCCCC(=O)O [Example 6, lignoceric acid]
Response given: 153.0

Challenge: Would you mind doing CCCCCCCCCCCC(=O)O [D, Lauric acid] as well?
Response given: 63.0

Challenge: Follow-up item: CCCCCCCCCCCCCC(=O)O [E, myristic acid]
Response given: 52.0

Challenge: Next: CCCCCCCCCCCCCCCCCCCC(=O)O [Example 5, arachidic acid]
Response given: 123.0

Shift focus to the following entry.
Challenge: Reported % increase over control for CCCCCCCCCCCCCCCC(=O)O [Example F, palmitic acid] : what is it?
Response given: 104.0
